experiment: Plasma pharmacokinetics of KW-2478; type: in vivo, human; conditions: 47 mg m^–2 iv, day 1, n=3, mean±s.d.
reportedProperty: kel (elimination rate constant) (h⁻¹)
Answers are plain numbers, in h⁻¹.

**Query** Give the measured kel (elimination rate constant) of CCc1c(O)cc(O)c(C(=O)c2ccc(OCCN3CCOCC3)c(OC)c2)c1CC(=O)N(CCOC)CCOC [KW-2478] .
**Result** 0.11

====

assay: Plasma pharmacokinetics of KW-2478; type: in vivo, human; conditions: 132 mg m^–2 iv, day 1, n=6, mean±s.d.
reportedProperty: kel (elimination rate constant) (h⁻¹)
Answers are plain numbers, in h⁻¹.

**Query** Name the recorded kel (elimination rate constant) for `CCc1c(O)cc(O)c(C(=O)c2ccc(OCCN3CCOCC3)c(OC)c2)c1CC(=O)N(CCOC)CCOC` .
**Result** 0.12

====

assay: Plasma pharmacokinetics of KW-2478; type: in vivo, human; details: 14 mg m^–2 iv, day 1, n=3, mean±s.d.
reportedProperty: kel (elimination rate constant)
Output should be the measured figure followed by the unit it is expressed in.

**Query** Recorded kel (elimination rate constant) for `CCc1c(O)cc(O)c(C(=O)c2ccc(OCCN3CCOCC3)c(OC)c2)c1CC(=O)N(CCOC)CCOC` , please?
**Result** 0.11 h⁻¹

====

experiment: Plasma pharmacokinetics of KW-2478; assay type: in vivo, human; conditions: 99 mg m^–2 iv, day 1, n=3, mean±s.d.
reportedProperty: kel (elimination rate constant)
Just the number plus its unit, please.

**Query** Please look up its kel (elimination rate constant): `CCc1c(O)cc(O)c(C(=O)c2ccc(OCCN3CCOCC3)c(OC)c2)c1CC(=O)N(CCOC)CCOC`
**Result** 0.12 h⁻¹
